- TEST NAME: physchem
- DETAILS: aqueous POM polymer solution, pH 7, aqueous with cosolvent or surfactant or cyclodextrin, thermodynamic from solid, Total concentration of solubilized active ingredient for 20 g/l of polymer, sodium polyglutamate DP=100, 2% VE, 20 g/l; pH 7.0; ambient temperature
MEASUREMENT NAME: solubility
Note: state the figure and append the unit.

solubility reported for this compound CC(=O)N1CCN(c2ccc(OCC3COC(Cn4ccnc4)(c4ccc(Cl)cc4Cl)O3)cc2)CC1 (stereo not shown) [ketoconazole] : 565 µM

---

- TEST NAME: physchem
- DETAILS: aqueous POM polymer solution, pH 7, aqueous with cosolvent or surfactant or cyclodextrin, thermodynamic from solid, Total concentration of solubilized active ingredient for 20 g/l of polymer, sodium polyglutamate DP=100, 5% VE, 20 g/l; pH 7.0; ambient temperature
MEASUREMENT NAME: solubility (µM)
Report only the number, with the unit µM understood.

solubility reported for this molecule CC(=O)N1CCN(c2ccc(OCC3COC(Cn4ccnc4)(c4ccc(Cl)cc4Cl)O3)cc2)CC1 (stereo not shown) : 2540

---

- TEST NAME: Solubilization of paclitaxel in aqueous POM polymer solution at 20 mg/ml (visual check)
- Type: physicochemical
- DETAILS: aqueous polyglutamate (POM) polymer solution, pH 7, aqueous with cosolvent or surfactant or cyclodextrin, thermodynamic from solid; 20 mg/ml polyglutamate DP=100, 20% VE
MEASUREMENT NAME: solubility at […]

solubility at […] reported for this molecule CC(=O)O[C@H]1C(=O)[C@@]2(C)[C@H]([C@H](OC(=O)c3ccccc3)[C@]3(O)C[C@H](OC(=O)[C@H](O)[C@@H](NC(=O)c4ccccc4)c4ccccc4)C(C)=C1C3(C)C)[C@]1(OC(C)=O)CO[C@@H]1C[C@@H]2O : ~800 µg/mL

---

- TEST NAME: physchem
- DETAILS: concentrated aqueous POM polymer solution, pH 7, aqueous with cosolvent or surfactant or cyclodextrin, thermodynamic from solid, Total concentration of solubilized active ingredient, sodium polyglutamate DP=100, 10% VE, 52.8 mg/ml, ambient temperature
MEASUREMENT NAME: solubility (mM)
Report only the number, with the unit mM understood.

solubility reported for this compound COc1ccccc1OCCNCC(O)COc1cccc2[nH]c3ccccc3c12 (stereo not shown) : 33.7

---

- TEST NAME: physchem
- DETAILS: concentrated aqueous POM polymer solution, pH 7, aqueous with cosolvent or surfactant or cyclodextrin, thermodynamic from solid, Total concentration of solubilized active ingredient, sodium polyglutamate DP=100, 20% VE, 156 mg/ml, ambient temperature
MEASUREMENT NAME: solubility (mM)
Report only the number, with the unit mM understood.

solubility reported for this compound COc1ccccc1OCCNCC(O)COc1cccc2[nH]c3ccccc3c12 (stereo not shown) : 84.6

---

- TEST NAME: Solubilization of paclitaxel in concentrated aqueous POM polymer solution (visual check)
- Type: physicochemical
- DETAILS: concentrated aqueous POM polymer solution, pH 7, aqueous with cosolvent or surfactant or cyclodextrin, thermodynamic from solid, concentrated polymers DP=100 containing between 15% and 20% vitamin E; read-out: concentrations of solubilized active ingredient
MEASUREMENT NAME: solubility

solubility reported for this compound CC(=O)O[C@H]1C(=O)[C@@]2(C)[C@H]([C@H](OC(=O)c3ccccc3)[C@]3(O)C[C@H](OC(=O)[C@H](O)[C@@H](NC(=O)c4ccccc4)c4ccccc4)C(C)=C1C3(C)C)[C@]1(OC(C)=O)CO[C@@H]1C[C@@H]2O : > 3000 µM
